# Tgt: T1, recombinant human SOST (rhSOST) (human, UniProt Q9BQB4 24-213)
# T1 construct: Treated as one molecule; also called recombinant human SOST protein; human sclerostin
# T1 sequence: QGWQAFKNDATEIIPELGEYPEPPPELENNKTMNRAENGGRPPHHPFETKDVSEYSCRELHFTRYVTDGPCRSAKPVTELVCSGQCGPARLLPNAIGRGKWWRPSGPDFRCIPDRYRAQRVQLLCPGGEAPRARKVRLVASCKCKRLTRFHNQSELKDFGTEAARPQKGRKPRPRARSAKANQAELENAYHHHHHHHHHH
# Test Name: SPR Biacore T200, IgG captured via anti-human Fc, rhSOST analyte, 37 C
Test Readout: log10(koff) (log10 of the value in s⁻¹)
Hi team, quick reminder: these entries are log10 of koff (s⁻¹).

DM2 (antibody, V domains shown, also called mH10/mL14) VH: EVQLLESGGGLVQPGGSLRLSCAASGHTFSDYWMQWVRQAPGKGLEWVGAIYPGDGDTRYNQKFKDRFTISRDNSKNTLYLQMNSLRAEDTAVYYCARSMDYWGQGTLVTVSS VL: DIVMTQSPDSLAVSLGERATINCRASKTVDSYGNSFMHWFQQKPGQPPKLLIYHSSNLESGVPDRFSGSGSGTDFTLTISSLQAEDVAVYYCLQTIEHPYTFGQGTKLEIK    -3.10
DM28 (antibody, V domains shown, also called mH8/wt) VH: EVQLLESGGGLVQPGGSLRLSCAASGHTFTDYWMQWVRQAPGKGLEWIGAIYPGDGDTRYAQSVKGRFTISRDNSKNTLYLQMNSLRAEDTAVYYCARSMDYWGQGTLVTVSS VL: DIVMTQSPDSLAVSLGERATINCRASKTVDSYGNSFMHWFQQKPGQPPKLLIHHSSNLESGVPDRFSGSGSGTDFTLTISSLQAEDVAVYYCLQTIEDPYTFGQGTKLEIK    -3.46
DM12 (antibody, V domains shown, also called wt/mL1) VH: EVQLLESGGGLVQPGGSLRLSCAASGHTFTDYWMQWVRQAPGKGLEWIGAIYPGDGDTRYNQKFKDRFTISRDNSKNTLYLQMNSLRAEDTAVYYCARSMDYWGQGTLVTVSS VL: DIVMTQSPDSLAVSLGERATINCRASKTVDSYGNSFMHWYQQKPGQPPKLLIHHSSNLESGVPDRFSGSGSGTDFTLTISSLQAEDVAVYYCLQTIEDPYTFGQGTKLEIK    -4.25
DM21 (antibody, V domains shown, also called mH1/mL2) VH: EVQLLESGGGLVQPGGSLRLSCAASGHTFSDYWMQWVRQAPGKGLEWIGAIYPGDGDTRYNQKFKDRFTISRDNSKNTLYLQMNSLRAEDTAVYYCARSMDYWGQGTLVTVSS VL: DIVMTQSPDSLAVSLGERATINCRASKTVDSYGNSFMHWFQQKPGQPPKLLIYHSSNLESGVPDRFSGSGSGTDFTLTISSLQAEDVAVYYCLQTIEDPYTFGQGTKLEIK    -4.13
DM4 (antibody, human IgG2, kappa, V domains shown, mAb names lost in this copy; also called mH10/mL13) VH: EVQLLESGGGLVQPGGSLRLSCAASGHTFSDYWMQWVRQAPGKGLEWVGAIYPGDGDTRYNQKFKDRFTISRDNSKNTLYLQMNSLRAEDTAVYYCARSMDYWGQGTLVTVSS VL: DIVMTQSPDSLAVSLGERATINCRASKTVDSYGNSFMHWFQQKPGQPPKLLIHHSSNLESGVPDRFSGSGSGTDFTLTISSLQAEDVAVYYCLQTIEFPYTFGQGTKLEIKR    -3.29

## Input Any idea what log10(koff) was measured for DM26 (antibody, V domains shown, also called mH5/wt) VH: EVQLLESGGGLVQPGGSLRLSCAASGHTFTDYWMQWVRQAPGKGLEWISAIYPGDGDTRYNQKFKDRFTISRDNSKNTLYLQMNSLRAEDTAVYYCARSMDYWGQGTLVTVSS VL: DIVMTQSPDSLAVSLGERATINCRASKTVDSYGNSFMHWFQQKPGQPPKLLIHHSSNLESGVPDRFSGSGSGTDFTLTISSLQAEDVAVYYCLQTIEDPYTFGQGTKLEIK ?
## Output -3.65

## Input Any idea what log10(koff) was measured for DM6 (antibody, V domains shown, also called mH10/mL17) VH: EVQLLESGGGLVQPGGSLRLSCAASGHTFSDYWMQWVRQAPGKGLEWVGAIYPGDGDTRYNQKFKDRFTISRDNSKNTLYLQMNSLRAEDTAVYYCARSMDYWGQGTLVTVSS VL: DIVMTQSPDSLAVSLGERATINCRASKTVDSYGNSFMHWYQQKPGQPPKLLIYHSSNLESGVPDRFSGSGSGTDFTLTISSLQAEDVAVYYCLQTIEFPYTFGQGTKLEIK ?
## Output -2.60

## Input Any idea what log10(koff) was measured for DP99 (antibody, V domains shown, also called pH99/pL99) VH: EVMLAESGGGLVQPGGSLQLSCAASGFTFSIYAMSWVRQTPEKRLEWVATISGGDTYTYYADSVKGRFTISRDNAKNTLYLHMTGLRSEDTALYYCARHGYDDFDYWGLGTTLTVSS VL: DVVLTQIPLTLSVTIGQPATISCKSSQSLLDNDGETYLNWLLVRPGQSPKRLIYQVSKLDSGFPERFTGGGSGTDFTLKISRVEAEDLGIYYCWQGTHFPHTFGGGTKLEIK ?
## Output -2.52

## Input Any idea what log10(koff) was measured for DM14 (antibody, V domains shown, also called wt/mL3) VH: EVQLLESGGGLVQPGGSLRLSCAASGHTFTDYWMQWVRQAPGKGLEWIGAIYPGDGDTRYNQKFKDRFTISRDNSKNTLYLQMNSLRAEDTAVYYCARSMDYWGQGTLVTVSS VL: DIVMTQSPDSLAVSLGERATINCRASKTVDSYGNSFMHWYQQKPGQPPKLLIYHSSNLESGVPDRFSGSGSGTDFTLTISSLQAEDVAVYYCLQTIEDPYTFGQGTKLEIK ?
## Output -4.08

## Input Any idea what log10(koff) was measured for DM15 (antibody, V domains shown, also called wt/mL4) VH: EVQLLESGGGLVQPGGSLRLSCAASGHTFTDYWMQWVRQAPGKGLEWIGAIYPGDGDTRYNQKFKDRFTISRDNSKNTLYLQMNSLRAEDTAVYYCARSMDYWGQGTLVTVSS VL: DIVMTQSPDSLAVSLGERATINCRASKTVDSYGNSFMHWFQQKPGQPPKLLIHHSSNLESGVPDRFSGSGSGTDFTLTISSLQAEDVAVYYCLQTIEHPYTFGQGTKLEIK ?
## Output -3.53
